- Tested on: NCI-H522 lung
- method: NCI-60 one-dose screen, 48 h (100 = growth as untreated, 0 = no growth, -100 = all killed)
- settings: 10 µM
The panel holds about 83,000 compounds, 20% with a hit somewhere; the sample as a whole holds those more often.
assay endpoint: growth (%)
Reply numerically in %, unit not repeated.

compound: Nc1ncc(-c2ccc(C(F)(F)F)cc2)c(NC2CCCCCC2)n1
unit annotation: %
growth: -6.45

Kindly note: NCI-H522 lung, N#CN1CC[C@H](C(=O)Nc2ncc(-c3ccncc3)s2)C1 , growth value reported: -37.8

Kindly note: NCI-H522 lung, COC1OC2COC(c3ccccc3)OC2C(=O)C1NC(=O)c1ccccc1 (stereo unspecified) , growth value reported: 95.2

Kindly note: NCI-H522 lung, COC(=O)c1ccc(Cn2ccc(=O)[nH]c2=O)cc1 , growth value reported: 93.2

Kindly note: NCI-H522 lung, COc1ccc(/C=C2\SC(=S)N(CCCN3CCOCC3)C2=O)c(OC)c1 , growth value reported: 79.7

Kindly note: NCI-H522 lung, COc1ccc(-c2nc(NC(=O)CS(=O)(=O)c3ccc(F)cc3)sc2C)cc1 , growth value reported: 49

###

- Tested on: MDA-MB-231 breast
- method: NCI-60 one-dose screen, 48 h (100 = growth as untreated, 0 = no growth, -100 = all killed)
- settings: 10 µM
This is part of a sample that, as a whole, favours compounds with a hit. Of some 83,000 tested, about 20% had one in any assay.
assay endpoint: growth (%)
Reply numerically in %, unit not repeated.

molecule: COc1ccc(N2CCN(c3nc(-c4ccccc4)c(C#N)c(=O)[nH]3)CC2)cc1
growth (%): 106
//
molecule: O=c1cc(CSc2nnc(-c3ccccc3)n2-c2ccc(F)cc2)c2ccc3ccccc3c2o1
growth (%): 91.1
//
molecule: CC(C)/C(=N/O)c1ccccc1
growth (%): 99.8
//
molecule: CC(C)OCc1cc(CN2CCN(c3cccc(Cl)c3)CC2)c(O)c2ncccc12
growth (%): -41.9

growth reported for this molecule Cc1cc(Cl)ccc1Nc1nc(C(F)(F)F)ccc1C(=O)N/N=C/c1ccccc1Cl : -15.5

growth reported for this molecule O=C/C=C/c1ccc([N+](=O)[O-])cc1Cl : 122

growth reported for this molecule COc1cc(C(=O)n2nc(N)c3c(C)cc(C)nc32)cc(OC)c1OC : 87.7

growth reported for this molecule CC(Oc1ccc(Cl)cc1)c1ccccc1 (configuration not stated) : 105

growth reported for this molecule O=C(CCCC(=O)N/N=C/c1cc(Cl)ccc1O)N/N=C\c1cc(Cl)ccc1O : 37.5

growth reported for this molecule CCN(CC)CCOC(=O)c1ccc(NC(=O)Nc2cccc(Cl)c2)cc1 : 93.7

growth reported for this molecule CCC1(C)OC(=O)NC1=O (configuration not stated) : 109

growth reported for this molecule O=NN(CCCl)C(=O)Nc1ccc(NC(=O)N(CCCl)N=O)cc1 : 109

growth reported for this molecule COc1cccc(C(=O)NNc2nc(N3CCOCC3)nc(N3CCN(C(c4ccccc4)c4ccccc4)CC3)n2)c1 : 86.3

growth reported for this molecule COc1cc(Nc2ccnc(N3CCN(c4ccnc5cc(Cl)ccc45)CC3)n2)cc(OC)c1 : 18.5

###

- System: SK-MEL-2 melanoma
- method: NCI-60 one-dose screen, 48 h (100 = growth as untreated, 0 = no growth, -100 = all killed)
- settings: 10 µM
- Method: Growth inhibition of the SK-MEL-2 human tumor cell line is measured as a screen for anti-cancer activity. Cells are grown in 96 well plates and exposed to the test compound for 48 hours. Compounds are tested at a single concentration, which is 10^-5 M for most compounds. The reported endpoint is percent growth (GI% or GIPRCNT), where numbers from 0 - 100% represent growth inhibition, and numbers from -100% - 0 represent cell death. For example, a value of 40 represents 60% growth inhibition. […]
The panel holds about 83,000 compounds, 20% with a hit somewhere; the sample as a whole holds those more often.
// reported growth for each item listed
Reply numerically in %, unit not repeated.

# count of solved cases: 5
smiles notation: CNC(=S)Sc1ccc([N+](=O)[O-])cc1[N+](=O)[O-]
measured result: 90.7

smiles notation: CC(C)/C=N/NC(N)=S
measured result: 103

smiles notation: Nc1ccccc1NC(=O)CCCCCCC(=O)Nc1ccc2c(c1)/C(=C/c1ccc[nH]1)C(=O)N2
measured result: -1.9

smiles notation: COc1cc(CSc2nc3ccc(Cl)cc3c(=O)n2-c2ccccc2)cc(OC)c1OC
measured result: 77.5

smiles notation: Oc1cc(O)c(Br)cc1Br
measured result: 96.6

growth reported for this compound N#Cc1ccc(-n2cnc(NC(=O)[C@H]3CCN(C#N)C3)c2)cc1 : -31.7

###

- Tested on: HS 578T breast
- method: NCI-60 one-dose screen, 48 h (100 = growth as untreated, 0 = no growth, -100 = all killed)
- settings: 10 µM
This is part of a sample that, as a whole, favours compounds with a hit. Of some 83,000 tested, about 20% had one in any assay.
assay endpoint: growth (%)
Reply numerically in %, unit not repeated.

# count of solved cases: 5
compound: COCCNCC(O)Cn1c2ccc(Cl)cc2c2cc(Cl)ccc21 (stereo unspecified)
assayed system: HS 578T breast
unit annotation: %
measured result: -12.3
//
compound: O=C1/C(=C/c2ccc(O)cc2)Cc2ccc(Cl)cc21
assayed system: HS 578T breast
unit annotation: %
measured result: 95.4
//
compound: COc1ccc(-c2nc(SCC(=O)c3ccc(Br)cc3)[nH]c(=O)c2C#N)cc1
assayed system: HS 578T breast
unit annotation: %
measured result: 96.4
//
compound: Cc1cc(Cl)ccc1Nc1nc(C(F)(F)F)ccc1C(=O)N/N=C/c1ccccc1Cl
assayed system: HS 578T breast
unit annotation: %
measured result: 17.4
//
compound: N#Cc1ccc(-n2cnc(NC(=O)[C@H]3CCN(C#N)C3)c2)cc1
assayed system: HS 578T breast
unit annotation: %
measured result: 19.2

Kindly note: HS 578T breast, CCCCCC(CCC)COC(=O)c1ccc(OC)cc1 (stereo unspecified) , growth value reported: 106

###

- Tested on: M14 melanoma
- method: NCI-60 one-dose screen, 48 h (100 = growth as untreated, 0 = no growth, -100 = all killed)
- settings: 10 µM
The panel holds about 83,000 compounds, 20% with a hit somewhere; the sample as a whole holds those more often.
// reported growth for each item listed
Reply numerically in %, unit not repeated.

compound: c1ccc(C2CCCCC2)c(OCCCCCN2CCNCC2)c1
assayed system: M14 melanoma
growth, %: -66.5
--
compound: NC1CCC(Nc2nc(NCc3ccc(-c4ccco4)nc3)c3ncn(C4CCCC4)c3n2)CC1 (stereo unspecified)
assayed system: M14 melanoma
growth, %: -23.5
--
compound: Cc1ccc([P+](Cc2ccccc2)(c2ccccc2)c2ccccc2)cc1
assayed system: M14 melanoma
growth, %: 3.22
--
compound: CC(=O)c1ccc(NCn2nc(-c3ccc(Cl)cc3)oc2=S)cc1
assayed system: M14 melanoma
growth, %: 104
--
compound: COc1ccc2c(=O)cc(C(Cl)(Cl)Cl)oc2c1
assayed system: M14 melanoma
growth, %: -67.1

growth reported for this compound Fc1ccc(-c2cc(C(Cl)Cl)no2)cc1 : 89.3

growth reported for this compound Cc1ccc(-n2nnc3c(sc4ccccc43)c2=O)cc1 : 83.1

###

// reported growth for each item listed
- System: UO-31 renal
- method: NCI-60 one-dose screen, 48 h (100 = growth as untreated, 0 = no growth, -100 = all killed)
- settings: 10 µM
This is part of a sample that, as a whole, favours compounds with a hit. Of some 83,000 tested, about 20% had one in any assay. Activity calls are given as the source filed them. How the source made its calls: active means growth percent below 10; inactive means the rest.

molecule: COc1ccc(Nc2ccnc(N3CCN(c4ccnc5cc(Cl)ccc45)CC3)n2)cc1
growth: -1.7% (active)
//
molecule: COc1ccc(CSc2nc3cc(OC)c(OC)cc3c(=O)n2-c2ccc(OC)cc2OC)cc1
growth: 55.4% (inactive)
//
molecule: CC(=O)CS(C)(=O)=O
growth: 92.4% (inactive)

growth reported for this molecule CCN(CC)CCn1c(=N)n(CC(O)c2ccc(Cl)c(Cl)c2)c2ccccc21 (configuration not stated) : 64.3% (inactive)

growth reported for this molecule CCC(OC(=O)CC(C)C)c1ccccc1 (configuration not stated) : 95.1% (inactive)

###

- Tested on: A549/ATCC NSCLC
- method: NCI-60 one-dose screen, 48 h (100 = growth as untreated, 0 = no growth, -100 = all killed)
- settings: 10 µM
This is part of a sample that, as a whole, favours compounds with a hit. Of some 83,000 tested, about 20% had one in any assay.
assay endpoint: growth (%)
Reply numerically in %, unit not repeated.

# count of solved cases: 9
compound: CCOc1nc(-c2ccccc2)cc2c(O)c(C(=O)NCCCO)[nH]c(=O)c12
measured result: 106
--
compound: O=C(CCc1ccccc1)N1CCN(C(=O)CCc2ccccc2)CC1
measured result: 99.9
--
compound: CN(C)c1ccc2cc(-c3cc4c(oc3=O)-c3ccccc3OC4O)c(=O)oc2c1 (stereo not given)
measured result: 39.5
--
compound: CC(=O)OC1Oc2ccccc2-c2oc(=O)c(-c3cc(=O)oc4cc(O)ccc34)cc21 (stereo not given)
measured result: 84.3
--
compound: O=C(CCl)N1c2ccccc2Sc2ccc3ccccc3c21
measured result: 38
--
compound: O=C(COCc1c(-c2ccccc2)no[n+]1[O-])Nc1nc(-c2ccc(Cl)cc2)cs1
measured result: 105
--
compound: N#C/C(=C\N1C(=O)/C(=C/c2cccc([N+](=O)[O-])c2)SC1=S)c1nc2ccccc2s1
measured result: 70
--
compound: CCN(CC)CCOC(=O)c1ccc(NC(=O)Nc2cccc(Cl)c2)cc1
measured result: 91.4
--
compound: O=C(Nc1cccc(C(F)(F)F)c1)C(Cl)Cl
measured result: 98

Continue with the next compound.
growth reported for this compound O=NN(CCCl)C(=O)NCc1ccc(-c2ccc(CNC(=O)N(CCCl)N=O)cc2)cc1 : 87.1
